# PROTOCOL_NOTES: Plasma concentrations in the brain penetration studies
# COND: female, FVB (wildtype), mouse, in vivo, iv, 5 mg/kg, Loperamide plasma AUC(0-1 h), mean, loperamide with elacridar
RESULT_TYPE: AUC(0-t) (ng·h/mL)
Answer format: numeric, ng·h/mL implied, no suffix.

Query block: Consider the compound shown here: CN(C)C(=O)C(CCN1CCC(O)(c2ccc(Cl)cc2)CC1)(c1ccccc1)c1ccccc1 [loperamide] What is its recorded AUC(0-t)?
Result block: 744

====

# PROTOCOL_NOTES: Plasma concentrations in the brain penetration studies
# COND: female, FVB (wildtype), mouse, in vivo, Loperamide plasma concentration, mean, loperamide with elacridar; 5 min
RESULT_TYPE: concentration at 5 min

Query block: Consider the molecule shown here: CN(C)C(=O)C(CCN1CCC(O)(c2ccc(Cl)cc2)CC1)(c1ccccc1)c1ccccc1 [loperamide] What is its recorded concentration at 5 min?
Result block: 989 ng/mL
